targetEntity: RanGTP-importin-beta complex (human Ran / KPNB1)
methodDescription: disruptors of RanGTP/KPNB1 binding – biochemical, FRET, CFP/YFP, cell-free homogeneous, confirmation (AID 2823)
measurementContext: CFP-Ran/YFP-importin-beta FRET ratio
Activity calls are given as the source filed them. No rule for the calls is given here.
Response enum: active, inactive

>  <compound>
CS(=O)(=O)c1nsc2nc(=O)c(/C=C3\C=Nc4ccccc43)c(N)n12

>  <className>
active

$$$$
>  <compound>
Cc1ccc(O)c(Nc2c3ccccc3nc3ccccc23)c1

>  <className>
active

$$$$
>  <compound>
CN1CCN(C(=O)c2ccccc2Nc2ccc(SC(F)F)cc2)CC1

>  <className>
inactive

$$$$
>  <compound>
COc1ccc(C(=O)/C=C(\C)NCc2ccc3c(c2)OCO3)cc1

>  <className>
inactive

$$$$
>  <compound>
Cc1ccc(NC(=O)C2CCN(S(=O)(=O)c3ccc(Cl)c(C(F)(F)F)c3)CC2)nc1

>  <className>
inactive

$$$$
>  <compound>
O=C(O)C1C2CCC(C2)C1C(=O)NCCc1ccc(F)cc1 (configuration not stated)

>  <className>
inactive

$$$$
>  <compound>
N#C/C(=C/c1ccc(N2CCOCC2)o1)C(=O)N1CCOCC1

>  <className>
active

$$$$
>  <compound>
N#CCCN(C(=O)Nc1ccc(Cl)cc1)c1ccccc1

>  <className>
inactive

$$$$

// outcome(item) with item = "Oc1c(C=Nc2ccccc2)sc(=S)n1Cc1ccccc1"
inactive

So what was the verdict on OCCC1CN(Cc2cccn2-c2cccnc2)CCN1Cc1ccc(F)cc1 (configuration not stated) in this test?
inactive

----------
targetEntity: RanGTP-importin-beta complex (human Ran / KPNB1)
methodDescription: disruptors of RanGTP/KPNB1 binding – biochemical, FRET, CFP/YFP, cell-free homogeneous, confirmation (AID 2823)
measurementContext: CFP-Ran/YFP-importin-beta FRET ratio
Active and inactive are the calls of the source. The rule behind the calls is not given here.
measure: IC50

Would you mind telling me what IC50 value was observed for "C=CCOc1c(Br)cc(CNc2ccc(NC(=O)C(C)C)c(OC)c2)cc1OC" ?
> 50 µM (inactive)

Need IC50 of CCC1(C(=O)OC)NC(c2cccc(F)c2)C2C(=O)N(C)C(=O)C21 (stereo not drawn) , thanks.
> 50 µM (inactive)

----------
targetEntity: RanGTP-importin-beta complex (human Ran / KPNB1)
methodDescription: disruptors of RanGTP/KPNB1 binding – biochemical, FRET, CFP/YFP, cell-free homogeneous, confirmation (AID 2823)
measurementContext: CFP-Ran/YFP-importin-beta FRET ratio
The source made the active and inactive calls. No rule for the calls is given here.
Outcome field: choose from class 1 (active), class 0 (inactive)

# count of solved cases: 3
>  <molecule>
CCOc1cc(NS(=O)(=O)c2ccc(NC(C)=O)cc2)c(OCC)cc1NC(=O)C(C)C

>  <targetEntity>
RanGTP-importin-beta complex (human Ran / KPNB1)

>  <className>
class 0

$$$$
>  <molecule>
CCC(=O)Nc1cccc(NC(=S)NC(=O)c2cccs2)c1

>  <targetEntity>
RanGTP-importin-beta complex (human Ran / KPNB1)

>  <className>
class 0

$$$$
>  <molecule>
Cc1c(C)c2cc(Cl)c(O)c(CN(C)C)c2oc1=O

>  <targetEntity>
RanGTP-importin-beta complex (human Ran / KPNB1)

>  <className>
class 1

$$$$

# fetch the recorded call for "CCn1c(=O)cc(N2CCOCC2)[nH]c1=O" here
class 0

Which outcome did this test record for the molecule "C/C(=N\N)c1c(-c2ccccc2)c2cc(Br)ccc2[nH]c1=O" ?
class 0
